# Test system: SF-539 CNS
# Assay notes: NCI-60 one-dose screen, 48 h (100 = growth as untreated, 0 = no growth, -100 = all killed)
# Recorded conditions: 10 µM unless noted
Compounds without any hit were thinned out: in the full panel of roughly 83,000, 20% have a hit.
growth overview
The reply should be a number in %, with the unit left off.

Examples with answers:
Compound: COc1cc(/C=C2\CN(C(=O)CCN3CCC(=NO)CC3)C/C(=C\c3cc(OC)c(OC)c(OC)c3)C2=O)cc(OC)c1OC
Measured quantity: growth
Quantitative readout: -60.5
//
Compound: Cc1ccc(N)cc1F
Measured quantity: growth
Quantitative readout: 100
//
Compound: COc1cccc2c1C(=O)c1c(O)c3c(c(O)c1C2=O)C[C@@](O)(/C(C)=N/NC(=O)c1ccc(Cl)cc1)C[C@@H]3OC1CC(N)C(O)C(C)O1 (stereo not given in full)
Measured quantity: growth
Quantitative readout: -45.5

Form field: reported growth of "Cc1nn(-c2ccccc2)c2nc(C)n(-c3ccc(Br)cc3)c(=O)c12" -5.52

Form field: reported growth of "NCCN1CCN(c2nccc(-c3ccc4ccccc4c3)n2)CC1" -4.96

* * *

growth overview
# System: OVCAR-4 ovarian
# Assay notes: NCI-60 one-dose screen, 48 h (100 = growth as untreated, 0 = no growth, -100 = all killed)
# Recorded conditions: 10 µM unless noted
This is part of a sample that, as a whole, favours compounds with a hit. Of some 83,000 tested, about 20% had one in any assay.
The reply should be a number in %, with the unit left off.

Examples with answers:
Compound: O=C1CC(c2nc3ccccc3s2)CN1C1CCCCC1 (configuration not stated)
Assayed system: OVCAR-4 ovarian
growth / %: 94.1

Compound: CC(C)Oc1nc2c(c(=O)n(C)c(=O)n2C)n1C
Assayed system: OVCAR-4 ovarian
growth / %: 115

Compound: COc1ccc(/C(=C/c2ccc3ccccc3c2)c2nn[nH]n2)cc1OC
Assayed system: OVCAR-4 ovarian
growth / %: 62.7

Compound: CC/C=C\C[C@H](O)C/C=C1/C(=O)C=C[C@@H]1C/C=C\CCCC(=O)NC
Assayed system: OVCAR-4 ovarian
growth / %: 44.4

Form field: reported growth of "C#Cc1nc2ccccc2c(=O)[nH]1" -74.4

Form field: reported growth of "Cc1ccc(/C=C2\Oc3cc(OCC(=O)c4ccc(Cl)cc4)ccc3C2=O)cc1" 119

Form field: reported growth of "COc1ccc(-c2cn3c(-c4ccc(OC)cc4)cnc3c(Oc3ccc4c(C)cc(=O)oc4c3)n2)cc1" -18.6

* * *

# Test system: SK-MEL-5 melanoma
# Assay notes: NCI-60 one-dose screen, 48 h
# Recorded conditions: 10 µM unless noted
About 83,000 compounds went through this panel and 20% of them were active in at least one assay; those are over-represented in the sample as a whole. Activity calls are given as the source filed them. How the source made its calls: active means growth percent below 10; inactive means the rest.
Thanks in advance; please answer with one of these: 1 = active, -1 = inactive

Compound: O=C1C[C@H](Sc2nc(-c3ccc(F)cc3)cc(C(F)(F)F)n2)[C@H]2CO[C@@H]1O2
Category: -1

Compound: O=C(/C=C/c1cccc(Br)c1)c1ccccc1
Category: -1

Compound: OCCNCCNc1c2ccccc2nc2ccccc12
Category: -1

Just curious, what result did "CCOC(=O)c1nc(Nc2cc(C)[nH]n2)c2ccccc2n1" get here? -1

Just curious, what result did "CC(C)[C@@H]1CC[C@]2(C(=O)NCCCCN=C(N)N)CC[C@]3(C)[C@H](CC[C@@H]4[C@@]5(C)CCC(=O)C(C)(C)[C@@H]5CC[C@]43C)[C@@H]12" get here? -1

Just curious, what result did "COc1ccc(-c2cc(C(=O)N=Nc3c(O)[nH]c4ccccc34)no2)cc1" get here? -1

Just curious, what result did C=C1CC2(OC1=O)C(=O)N(CCCCCCCCCCCCN1C(=O)C3(CC(=C)C(=O)O3)c3ccccc31)c1ccccc12 (stereo unspecified) get here? -1

Just curious, what result did "COc1cc2nc3cc([N+](=O)[O-])ccc3c(NCCCNCC(C)(C)O)c2cc1OC" get here? 1

Just curious, what result did "Cc1ccc2cnc(N)c(C#Cc3cncc(C(=O)Nc4ccc(CN5CCN(C)CC5)c(C(F)(F)F)c4)c3)c2c1" get here? 1

Just curious, what result did CC(=O)OCC(=O)C1CCC=CC1OC(C)=O (stereo unspecified) get here? -1

Just curious, what result did C=C1CC[C@@H]2[C@](C)(COC(C)=O)[C@H](OC(C)=O)CC[C@@]2(C)[C@@H]1CC(NCc1ccc(F)cc1)C1=CCOC1=O (stereo partly specified) get here? -1

Just curious, what result did "O=C(Nc1ccc(F)cc1)Nc1ccc(CCO)cc1" get here? -1

Just curious, what result did "O=C(N/N=C/c1ccc(O)cc1O)c1cccnc1" get here? -1

Just curious, what result did "CC(C)C1=C[C@@]23CC[C@@H]4[C@](C)(CCC[C@@]4(C)C(=O)OCC#CCN4CCCC4)[C@H]2C[C@@H]1[C@H]1C(=O)OC(=O)[C@H]13" get here? -1

Just curious, what result did "COc1ccc2[nH]c(=O)c(/C=C/C(=O)c3ccc(Nc4nccc(-c5ccc6ccccc6c5)n4)cc3)cc2c1" get here? -1

Just curious, what result did "COc1ccc(C(=O)c2sc3nc(-c4ccccc4OC)ccc3c2N)cc1OC" get here? 1

Just curious, what result did "Cc1ccc(Nc2c(C(N)=O)cnc3ccc(-c4csc(N)n4)cc23)cc1" get here? -1

Just curious, what result did O=C1Nc2ccccc2C12CC(c1ccc(Cl)cc1)=NN2 (stereo unspecified) get here? -1

Just curious, what result did "COc1ccc(/C=N\NC(=O)CN2CCN(c3cc4c(cc3F)c(=O)c(C(=O)N/N=C/c3ccc(OC)cc3)cn4C3CC3)CC2)cc1" get here? -1

Just curious, what result did "Cc1ccc2c(c1)n([O-])c1cc(Cl)ccc1[n+]2=O" get here? -1

Just curious, what result did "Cc1cc(=O)oc2cc(Oc3nc(-c4cccs4)cn4c(-c5cccs5)cnc34)ccc12" get here? -1

Just curious, what result did "Cn1cc(-c2csc(-c3cn(C)c4ncccc34)n2)c2ccccc21" get here? -1

Just curious, what result did "O=C1/C(=C/c2ccc(F)cc2)CN(C(=O)CCN2CCC(=NO)CC2)C/C1=C\c1ccc(F)cc1" get here? 1

Just curious, what result did "COc1ccc(-c2cc(=O)[nH]c3c(OC)c4ccccc4c(OC)c23)cc1" get here? -1

Where do the numbers come from? From PubChem BioAssay (NCI).
